Provenance of the data: PubChem BioAssay AID1159580

- assayExplanation: chemical genetic growth profiling, strain panel (AID 1159580);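 further: tested at 20 µM; growth read once vehicle control cultures reached saturation at 30 °C; 1 = growth at the plate median or of vehicle wells; lower values mean less growth of the strain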
- conditions: S. cerevisiae deletion strains, growth OD, locus YOR184W, strain ser1, active compounds read low
Hit rate of the full screen: of about 5,500 compounds, about 2,000 (36%) were called active. About 18% were inconclusive and are not listed. This is one part of the list.
Listed compounds paired with reported normalized growth
Respond with the number and no other words.

Consider the reported normalized growth for these compounds:
compound="COC(=O)C1=C(C)NC(C)=C(C(=O)OCCN(C)Cc2ccccc2)C1c1cccc([N+](=O)[O-])c1 (stereo unspecified)" measurementkind="normalized growth" observed=0.956
compound="COCCOC(=O)C1=C(C)NC(C)=C(C(=O)OC(C)C)C1c1cccc([N+](=O)[O-])c1 (stereo unspecified)" measurementkind="normalized growth" observed=1.01
compound=COc1ccc(C(=O)/C=C/c2ccccc2)cc1 measurementkind="normalized growth" observed=0.43
compound=COC(=O)C1=C(C)NC(C)=C(C(=O)OC)C1c1ccccc1[N+](=O)[O-] measurementkind="normalized growth" observed=0.792
compound=NCCc1ccc(O)c(O)c1 measurementkind="normalized growth" observed=0.995

Give me measured normalized growth, please, for this compound: C=C1C(N)CC2CC1C2(C)C (stereo unspecified)
0.995
